Each entry below lists one item and its recorded cytotoxicity at 10 µM value.
# EXPERIMENT_SUMMARY: Toxicity liver stage against HepG2, at 10uM
# Format: cell-based
# Design: test concentration 10 uM, cell line HepG2-A16-CD81EGFP
# TEST_PARAMETERS: human, HepG2-A16-CD81EGFP cells; read-out: INHIBITION
MEASURE: cytotoxicity at 10 µM (%)

1) Cc1cccc(CN2C(=O)CC[C@@H]3[C@H]2CCN3Cc2cccnc2)n1
-74.6
2) CC(C)c1ccc(C(N)c2cccs2)cc1 (configuration not stated)
15.4
3) O=c1[nH]c2ccccc2cc1CNCCCN1CCOCC1
-17.5
4) O=C(NCc1cccnc1)N1CCc2ncnc(C3CC3)c2CC1
-144
5) Cc1n[nH]c(C)c1CCN(C)C(=O)C(c1cccnc1)N1CCOCC1 (configuration not stated)
-0.593
6) CN1CCOC(CNCc2csc(C3CCCC3)n2)C1 (configuration not stated)
-0.383
7) CCNC(=O)N(CCCO)C1CCCc2ccccc21 (configuration not stated)
-11
8) Cc1nc(C)n(CC2CCCN2Cc2nc(-c3ccco3)no2)n1 (configuration not stated)
-4.39
9) CC(=O)NCCC(=O)Nc1cccc(N2CCN(CC3CC3)CC2)c1
-5.62
10) Cc1ccc2c(c1C)OCC2NCc1cccc(C#N)c1 (configuration not stated)
9.91
11) Cc1ccsc1C(=O)N1CC2CC1(C(=O)NCc1ccco1)C2
-6.43
12) CC(C)COC(C)C(=O)NCc1cc(F)cc(F)c1 (configuration not stated)
3.37

====

# EXPERIMENT_SUMMARY: Toxicity liver stage against HepG2, at 10uM
# Format: cell-based
# Design: test concentration 10 uM, cell line HepG2-A16-CD81EGFP
# TEST_PARAMETERS: human, HepG2-A16-CD81EGFP cells; read-out: INHIBITION
MEASURE: cytotoxicity at 10 µM (%)

1) Cc1cn2c(n1)C(CNCC1=Cc3ccccc3OC1)CCC2 (stereo unspecified)
27.7
2) Cc1cnc(-n2cnnc2)c(-c2cccc3c2CCNC3)c1
17.7
3) CN1C(=O)C2(CCN(C(=O)C3CCOCC3)CC2)c2ccccc21
2.5
4) CCn1c(CC2CCN(C(=O)C3COCCO3)CC2)nn(C)c1=O (stereo unspecified)
-0.525
5) COc1ccc(Cl)cc1C(=O)N1CCCC(n2nc(C)nc2C)C1 (stereo unspecified)
-4.53
6) CC(=O)N[C@@H]1CN(C(=O)Cc2coc3cc(C)ccc23)C[C@H]1O
5.84

====

Each entry below lists one item and its recorded cytotoxicity at 10 µM value.
# EXPERIMENT_SUMMARY: Toxicity liver stage against HepG2, at 10uM
# Type: cell-based
# Parameters: test concentration 10 uM, cell line HepG2-A16-CD81EGFP
# TEST_PARAMETERS: human, HepG2-A16-CD81EGFP cells; read-out: INHIBITION
MEASURE: cytotoxicity at 10 µM (%)

1) COc1cc2c(cc1OC)CN(C(=O)NC(C)c1nncn1C)CC2 (stereo not given)
-4.54
2) CCOCC1CN(C(=O)c2ccncn2)Cc2cnn(CC)c21 (stereo not given)
-68.3
3) Cc1csc(C(C#N)C(=O)NCc2cccnc2)n1 (stereo not given)
9.6
4) Cn1cc(CN(Cc2cccc(-n3cccn3)c2)C2CC2)cn1
-15.4
5) CN(Cc1cccc(F)c1)C(=O)CS(=O)(=O)Cc1ccc(Cl)c(Cl)c1
-4.67
6) CCCn1nnnc1COc1ccc(C(=O)OC)cc1
-5.58
7) c1cncc(CN2CC[C@@H]3[C@@H]2CCN3Cc2ccc3c(c2)OCO3)c1
-3.04
8) COc1cc(C)ccc1OCCC(=O)N1CCCC(n2cncn2)C1 (stereo not given)
-2.69
9) CCN(CC)C(=O)CNC(=O)N1CCC(c2ccccc2)C1 (stereo not given)
2.03
10) CC(=O)N1CCN(c2ccc3ccc(C(=O)NC4CCCC4)cn23)CC1
8.15
11) Cc1nc(C)c(CNCc2nnc3n2CCCC3C(F)(F)F)s1 (stereo not given)
3.28
12) CCOc1ccc(CN2CCNC(C(=O)NC3CC3)C2)cc1CO (stereo not given)
2.95
13) CC(C)Cc1nc(CO)n(-c2ccc3c(c2)OCCO3)n1
-1.86
14) NC(=O)CC1CCN(CC(O)c2ccc(Br)cc2)CC1 (stereo not given)
-7.74
15) O=C1CCC2(CCN(Cc3ccc(F)cc3Cl)CC2)CN1CCO
5.29
16) CC(C)N(CC1CCCN(Cc2ccon2)C1)C(=O)OC(C)(C)C (stereo not given)
7.09
17) N#Cc1cccc(N2CCC3(CC2)Nc2ccccc2NC3=O)n1
5.57
18) CCCC(=O)NCc1ccc(N2CCCCC2)cc1
3.54
19) CCOCCNC(=O)c1cnc(Sc2nccn2C)c(Cl)c1
-44.6
20) COCCc1noc(-c2ccc(N[C@H]3CCCCNC3=O)nc2)n1
6.9
21) Cc1ccc2c(n1)N(CC1CC1)CCN(C(=O)c1ccncc1F)C2
-0.182
22) CN(C)c1ccc(CNC(=O)Nc2ccc(S(=O)(=O)C(F)F)cc2)cc1
9.25
23) O=C1CC2(CCCNC2)C(=O)N1Cc1cccc(Cl)c1 (stereo not given)
-1.19
24) O=C(CCc1ccc(-n2cnnn2)cc1)Nc1ccncc1
-11.2
25) CCN1C(=O)CCC12CCN(C(=O)c1ccco1)CC2
-3.66

====

# EXPERIMENT_SUMMARY: Toxicity liver stage against HepG2, at 10uM
# Type: cell-based
# Design: test concentration 10 uM, cell line HepG2-A16-CD81EGFP
# TEST_PARAMETERS: human, HepG2-A16-CD81EGFP cells; read-out: INHIBITION
Each entry below lists one item and its recorded cytotoxicity at 10 µM value.
MEASURE: cytotoxicity at 10 µM (%)

1. CC(OCC1CC1)C(=O)Nc1ncccc1I (stereo not given)
12.1
2. CC(NCc1cccc2c1OCCO2)c1cc2c(cc1Br)OCCO2 (stereo not given)
3.6
3. Cc1cc(C)nc(NC(=O)C(C)Oc2ccc3c(c2)OCO3)n1 (stereo not given)
-9.9
4. Cc1cc(C)n(CC2CN(Cc3noc(C)n3)CCO2)n1 (stereo not given)
0.305
5. Nc1nccnc1C1CN(C(=O)COc2cccnc2)CCO1 (stereo not given)
-1.83
6. CC(C(=O)Nc1cccc(Cl)c1)N1CCN(Cc2ncc[nH]2)CC1 (stereo not given)
-8.64
7. CCN(CC)C(=O)c1cnc(Sc2nccn2C)c(Cl)c1
-61.1
8. CCn1cc(NC(=O)NCC(C)O)cn1 (stereo not given)
-4.84
9. Cn1ncc2c(NCC3CCS(=O)(=O)C3)nc(-c3ccncc3)nc21 (stereo not given)
-3.91
10. CCC(CNC(=O)C1CCC1)(OC)c1ccccc1 (stereo not given)
1.95
11. COC(=O)c1cccc(NC(=O)CN2CCN(S(C)(=O)=O)CC2)c1
11.3
12. Cn1ccc(NC(=O)CN2CCC(Oc3cnccn3)CC2)n1
4.3
13. O=C(O)[C@H]1C[C@H](C(=O)NCc2ccncc2)CN(CCC(F)(F)F)C1
-142
14. Cc1cc2cc(NC(=O)Cn3ncc(N4CCCC4)cc3=O)ccc2o1
-0.273
15. Cn1cnc2c1CCN(C(C(=O)N1CCCCC1)c1ccccc1)C2 (stereo not given)
-5.34
16. O=S(=O)(CC1CCCN1S(=O)(=O)C1CC1)c1ccccc1 (stereo not given)
-5.75
17. CCn1cnnc1CNC(=O)NCC(C)(CC)N1CCOCC1 (stereo not given)
-10.3
18. CC(=O)N1CCC(Cc2cccc(-c3ccnn3C)n2)CC1
6.3
19. CO[C@H]1CN(C(C)C)C[C@@H]1NC(=O)Nc1cccc(SC)c1
2.85
20. CN(C)S(=O)(=O)N1CC[C@]2(O)CCN(c3cc(C#N)ccn3)C[C@@H]2C1
12.3
21. Cc1ccc2cc(CNCCN3CCCC3)c(=O)[nH]c2c1
-1.89
22. NC(=O)c1cccc(CNCC=Cc2ccccc2)c1
5.62
23. CC(=O)Nc1cc2c(cc1C)OCO2
10.5
24. CN1C(=O)CC(c2cnn(C)c2)C12CCN(C(=O)c1ccncc1)CC2 (stereo not given)
-84.4
25. Cc1nc2cc(C3CCN(Cc4cccc(F)c4F)C3)nn2c(O)c1C (stereo not given)
0.333

====

# EXPERIMENT_SUMMARY: Toxicity liver stage against HepG2, at 10uM
# Assay type: cell-based
# Design: test concentration 10 uM, cell line HepG2-A16-CD81EGFP
# TEST_PARAMETERS: human, HepG2-A16-CD81EGFP cells; read-out: INHIBITION
MEASURE: cytotoxicity at 10 µM

1) CC(=O)N1Cc2ccccc2CC2(CCCCN2C)C1 (centres undefined)
3.87%
2) NS(=O)(=O)Cc1ccc(CNC(=O)NCC2CCOC2)cc1 (centres undefined)
1.18%
3) O=C(O)c1cc(-c2ccn(CC3CC3)n2)n2ccccc12
13.2%
4) CS(=O)(=O)N1CCO[C@@H]2CN(C(=O)N3CCOCC3)CC[C@@H]2C1
-105%
5) Brc1cccc(-c2noc(CN3CCOCC3)n2)c1
-15.2%
6) c1nc2c(c(C3CC3)n1)CCN(Cc1ccoc1)CC2
-22.7%
7) Cc1cc(C(=O)NC2CCCOc3cc(Cl)ccc32)n(C)n1 (centres undefined)
1.97%
8) CN1CCC(N[C@@H]2CO[C@H](CNC(=O)c3cccs3)[C@H]2O)CC1
-0.376%
9) CC(C)n1ccc(C(=O)OCC2CC(=O)N(Cc3ccccc3)C2)n1 (centres undefined)
0.379%
10) COCCOCCSc1nnc(Cc2ccccc2F)o1
14.5%
11) COc1ccccc1C(O)CNC(=O)NCc1csc(C)n1 (centres undefined)
-5.34%
12) NC(=O)c1ccc(OCC(=O)NC2CCc3c(F)cccc32)cc1 (centres undefined)
14.4%
13) CC(C)Nc1cccc(CNC(=O)N2CCC(N3CC=CC3)C2)c1 (centres undefined)
2.01%
14) Cc1ccc(NC(=O)CCC2CC2)cc1N1CCOC1=O
3.86%
15) N#Cc1cnn(C(=O)COc2ccccc2F)c1N
2.92%
16) CCn1c(C2CCCN(C(=O)C(C)(C)OC)C2)nn(CCN(C)C)c1=O (centres undefined)
-1.94%
17) Cc1cc(NCCC(=O)NC2CCS(=O)(=O)C2)nc(-c2ccncc2)n1 (centres undefined)
-6.74%
18) COCC(=O)N1CCCn2c(CN3CCCCC3)nnc2C1
-15.8%
19) CN1CCN(C(=O)c2cncc(CC3CCCN(C)C3)c2)CC1 (centres undefined)
7.87%
20) CCC1CN(Cc2nnc(C3CC3)o2)CCC(=O)N1Cc1ccccc1 (centres undefined)
0.0723%
21) O=C(c1ccccc1F)N1CC(c2nc(-c3ccc[nH]c3=O)no2)C1
2.21%
22) Cc1cc(C)nc(N2CCC(C(=O)Nc3ccc(C(C)C)cc3)CC2)n1
-3.02%
23) CCc1cc(=O)n(CC(=O)N2CCC(C)CC2)c(-c2ccccc2)n1
10.8%
24) COc1cccc(OC2CN(C(=O)c3cc(CC(C)C)nn3C)C2)c1
53.2%
